Data provenance is paper PMC10397247.

# Measured target: T1, P3A-bP
# T1 chain: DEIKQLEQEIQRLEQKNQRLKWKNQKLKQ
# Measurement description: two-hybrid library CCNG1;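 also: natural log of median RNA to DNA barcode read ratio; higher means stronger binding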
interaction score values by entry
A bare number is all that is needed in reply.

Known results for binders:
Binder	interaction score
DKNKQLKQENQRLEQKIQRLKWKIQKLKQ [P10A-bP]	-0.806
DENKQLEQEIQRLEQEIQRLEWKNQKLKQ [P11A-bP]	-2.11
DKIKQLKQKNQRLKQKNQRLKWKIQKLKQ [P2A-bP]	-1.2
DEIKQLEQEIQRLEQKNQRLKWKNQKLKQ [P3A-bP]	-0.848
DKNKQLKQKIQRLKQKIQRLKWENQKLEQ [P12A-bP]	1.06

Exercise: Please look up its interaction score: DEIKQLEQENQRLEQENQRLEWEIQKLEQ [P1A-bP]
Key: -0.629
